assay: inhibitors of Chlamydomonas gravitaxis, primary screen, whole organism, Chlamydomonas reinhardtii, WT vs cilia-less mutant, absorbance, 96-well (AID 463189); conditions: OD600 absorbance, 2 days, at 10 µM
Active and inactive are the calls of the source.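 How the source made its calls: active means inhibition at or above 50% relative to wild type and mutant plate controls; inactive means inhibition below 50%.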
Labels: Y = active, N = inactive

{"compound": "CCCCc1c(C)c2ccc(OCC(C)=O)cc2oc1=O", "assigned.class": "N"}
{"compound": "CCOC(=O)c1c(C)n(C)c2ccc(OC)c(NC(=O)c3cccs3)c12", "assigned.class": "N"}
{"compound": "CCC(NC(=O)Nc1ccc(O)cc1)(C(F)(F)F)C(F)(F)F", "assigned.class": "N"}
{"compound": "COc1ccccc1NC(=O)C1=C(C)NC(SCC(=O)c2ccc(C)cc2)=C(C#N)C1c1ccco1 (stereo unspecified)", "assigned.class": "N"}
{"compound": "CCc1nc2sc3c(c2c(=O)o1)CCCC3", "assigned.class": "N"}
{"compound": "Nc1ccc(S(=O)(=O)Nc2ncccn2)cc1", "assigned.class": "N"}
{"compound": "COc1cc(C(=O)OCCN2CCCCC2)ccc1O", "assigned.class": "N"}
{"compound": "CCOC(=O)C(CC(=O)O)N1CCCCC1 (stereo unspecified)", "assigned.class": "N"}
{"compound": "CC(=O)N=C(N)Sc1nc2ccccc2[nH]1", "assigned.class": "N"}
{"compound": "COc1ccc(OCC(=O)N2CCN(C(=O)c3cccc4ccccc34)CC2)cc1", "assigned.class": "N"}
{"compound": "C[C@@H]1C[C@H]2[C@@H]3C[C@H](F)C4=CC(=O)C=C[C@]4(C)[C@@]3(F)[C@@H](O)C[C@]2(C)[C@@]1(O)C(=O)CO", "assigned.class": "N"}
{"compound": "NS(=O)(=O)c1ccc(-c2ccc(C=NC3CCS(=O)(=O)C3)o2)cc1 (stereo unspecified)", "assigned.class": "N"}
{"compound": "Cc1cc(-c2ccc(F)cc2)nc2cc(C(N)=O)nn12", "assigned.class": "N"}
{"compound": "CCCCC(=O)O[C@]1(C(=O)CO)CC[C@H]2[C@@H]3CCC4=CC(=O)CC[C@]4(C)[C@H]3[C@@H](O)C[C@@]21C", "assigned.class": "N"}
{"compound": "CC1(C)O[C@@H]2C[C@H]3[C@@H]4C[C@H](F)C5=CC(=O)CC[C@]5(C)[C@H]4[C@@H](O)C[C@]3(C)[C@]2(C(=O)CO)O1", "assigned.class": "N"}
{"compound": "CC(C)(C)NCC(O)COc1cccc2c1C[C@H](O)[C@H](O)C2 (stereo partly specified)", "assigned.class": "N"}
{"compound": "Cc1cc(C)nc(CC(N)=O)n1", "assigned.class": "N"}
{"compound": "COc1ccccc1Nc1ncnc2c1cnn2-c1cccc(C)c1", "assigned.class": "N"}
{"compound": "CC(=O)Oc1cccc2c1C(=O)c1c(OC(C)=O)cc(C(=O)O)cc1C2=O", "assigned.class": "N"}
{"compound": "Cc1cc(NC(=O)CSc2nc(-c3cccnc3)ccc2C#N)no1", "assigned.class": "N"}
{"compound": "Cc1nc2sc3c(NCc4ccco4)ncnc3c2c2c1COC(C)(C)C2", "assigned.class": "N"}
{"compound": "Cc1cc(C)n(C(=O)CSc2nc3ccccc3o2)n1", "assigned.class": "N"}
{"compound": "Cc1cc(C)c(NC(=O)OCCN2CCOCC2)c(C)c1", "assigned.class": "N"}
{"compound": "C=CCOc1nc2c(c(=O)n(Cc3ccc(Cl)c(Cl)c3)c(=O)n2C)n1C", "assigned.class": "N"}
{"compound": "Cc1cc(C)nc(N(C#N)CC(=O)N(c2ccccc2)C(C)C)n1", "assigned.class": "N"}
{"compound": "COc1cc(OC)cc(C(=O)N2CCC(N3CCN(c4ccccc4)CC3)CC2)c1", "assigned.class": "N"}
{"compound": "COc1ccc(S(=O)(=O)N2CCC(N3CCCCC3)CC2)cc1", "assigned.class": "Y"}
{"compound": "Nc1nonc1-c1noc(N2CCOCC2)n1", "assigned.class": "N"}
{"compound": "COc1ccc(CCn2c(C)ccc2C)cc1OC", "assigned.class": "N"}
{"compound": "N#Cc1c(-c2ccccc2Cl)cc(C2CC2)nc1N", "assigned.class": "N"}
{"compound": "COc1cccc(-c2nnc3sc(-c4ccco4)nn23)c1", "assigned.class": "N"}
{"compound": "CSC1=Nc2sc3c(c2C2=NCCN12)CC(C)(C)OC3", "assigned.class": "Y"}
{"compound": "COc1ccc(-c2nnc3sc(-c4ccccc4OC)nn23)cc1", "assigned.class": "N"}
{"compound": "CC(=O)C1=C(O)C(=O)N(c2cccc(C(=O)O)c2)C1c1ccccc1F (stereo unspecified)", "assigned.class": "N"}
{"compound": "c1ccc(-c2nnc3n2N=C(c2ccc4c(c2)OCO4)CS3)nc1", "assigned.class": "N"}
{"compound": "N#Cc1c(SCC(=O)O)nc(N2CCCCC2)c2c1CCCC2", "assigned.class": "N"}
{"compound": "NC(N)=NC(N)=NCCc1ccccc1", "assigned.class": "N"}
{"compound": "Nc1ccc2oc3ncccc3c(=O)c2c1", "assigned.class": "N"}
{"compound": "Cc1ccc(CC2CC(=O)N(c3ccc4c(c3)OCCO4)C2=O)cc1 (stereo unspecified)", "assigned.class": "N"}
{"compound": "CC(C)Cc1nc(N2CCOCC2)c(C#N)c2c1CCC2", "assigned.class": "N"}
{"compound": "CN1CCN(c2ncnc3c2[nH]c2ccc(F)cc23)CC1", "assigned.class": "N"}
{"compound": "COc1ccc(N/C=C(\\C#N)c2nc3ccccc3n2C)c(OC)c1", "assigned.class": "N"}
{"compound": "CCOC(=O)CSC1=C(C#N)C(=O)NC2(CCCCC2)S1", "assigned.class": "N"}
{"compound": "CC1(C)CC(=O)c2cc(C(=O)N3CCCC(C)(C)C3)c(=O)n(-c3ccccc3)c2C1", "assigned.class": "N"}
{"compound": "COC(=O)CCc1c(C)[nH]c(C(=O)OCc2ccccc2)c1C", "assigned.class": "N"}
{"compound": "CCOC(=O)c1cc2c(=O)n3cccc(C)c3nc2n(Cc2cccnc2)c1=N", "assigned.class": "Y"}
